Molecular target: UniProt P49682
Assay: 125I-CXCL10 competition radioligand binding assay
property-name: IC50
Form entry: enter the amount, then its unit.

[Q] Item under review: CCCCN(Cc1ccc(OCCN2C(=O)CCC2=O)c(OC)c1)C(CC(=O)O)c1ccc(Cl)cc1 (stereo not shown) [Example 38] . Reported IC50?
[A] 0.045 µM

----------
Target: human CXCR3-A receptor (Homo sapiens (Human), UniProt P49682)
Sequence (P49682 whole entry): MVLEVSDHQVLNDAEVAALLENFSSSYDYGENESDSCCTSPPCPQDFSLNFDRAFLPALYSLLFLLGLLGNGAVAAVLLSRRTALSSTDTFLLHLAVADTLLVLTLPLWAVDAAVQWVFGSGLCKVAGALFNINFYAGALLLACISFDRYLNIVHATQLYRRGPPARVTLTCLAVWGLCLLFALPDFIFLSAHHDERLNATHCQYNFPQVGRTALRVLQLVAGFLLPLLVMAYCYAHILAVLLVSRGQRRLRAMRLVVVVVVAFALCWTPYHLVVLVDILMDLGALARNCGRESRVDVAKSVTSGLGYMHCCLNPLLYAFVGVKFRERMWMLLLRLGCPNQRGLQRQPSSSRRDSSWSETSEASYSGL
Assay: 125I-CXCL10 competition radioligand binding assay;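 also: One-hour incubation of membranes with tracer, bound radioligand separated by glass fibre filtration, IC50 derived from four-parameter nonlinear fit of competition curves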
Conditions: displacement of 125I-CXCL10 from membranes of CHO cells expressing human recombinant CXCR3-A
property-name: IC50 (nM)
One number for each entry, in nM.

{"compound": "Cc1cc(CN(CC2CCCCC2)C(CC(=O)O)c2ccc3c(c2)CCO3)ccc1OCCN1C(=O)CCC1=O (stereo not drawn)", "readout-value": 72}

Please look at the items below and tell me IC50 for each one, in order.
1. CN1CC(=O)N(CCOc2ccc(CN(CC3CCCCC3)[C@H](CC(=O)O)c3ccc(Cl)cc3)cc2Cl)C1=O
2. Cc1cc(CN(CC2CCCCC2)[C@@H](CC(=O)O)c2ccc(Cl)cc2)ccc1OCCN1C(=O)CN(C)C1=O

[A]
810
55

Working through the 8 compounds below one at a time, give IC50 for each.
1. Cc1cc(CN(CC2CCCC2)[C@H](CC(=O)O)c2ccc(Cl)c(F)c2)ccc1OCCN1C(=O)CN(C)C1=O
2. CCCCN(Cc1ccc(OCCN2C(=O)CCC2=O)c(CC)c1)C(CC(=O)O)c1ccc(Cl)c(Cl)c1 (stereo not drawn)
3. CCCN(Cc1ccc(OCCn2c(=O)ccn(C)c2=O)c(C)c1)C(CC(=O)O)c1ccc2c(c1)CCO2 (stereo not drawn)
4. Cc1cc(CN(CC2CC2)C(CC(=O)O)c2ccc(Cl)cc2Cl)ccc1OCCN1C(=O)CCC1=O (stereo not drawn)
5. CCN(Cc1ccc(OCCN2C(=O)CCC2=O)c(C)c1)C(c1ccc(Cl)cc1)C(C)C(=O)O (stereo not drawn)
6. CC(C)CN(Cc1ccc(OCCN2C(=O)CCC2=O)c(F)c1)C(CC(=O)O)c1ccc(Cl)cc1 (stereo not drawn)
7. COc1cc(CN(CCC(F)(F)F)C(CC(=O)O)c2ccc(Cl)cc2)ccc1OCCn1c(=O)ccn(C)c1=O (stereo not drawn)
8. CCc1cc(CN(CC2CCC2)[C@@H](CC(=O)O)c2ccc(Cl)cc2)ccc1OCCN1C(=O)CCC1=O

[A]
1. 86
2. 120
3. 529
4. 162
5. 266
6. 125
7. 1250
8. 70

Dear colleague, could you please provide IC50 for the compounds listed below?
1. CCCCN(Cc1ccc(OCCn2c(=O)ccn(C)c2=O)c(C)c1)C(CC(=O)O)c1ccc2c(c1)CCO2 (stereo not drawn)
2. CCCCN(Cc1ccc(OCCN2C(=O)CCC2=O)c(F)c1)C(CC(=O)O)c1ccc(Cl)c(F)c1 (stereo not drawn)
3. COc1cc(CN(CC2CCCCC2)C2c3ccc(Cl)cc3CC2C(=O)O)ccc1OCCN1C(=O)CCC1=O (stereo not drawn)
4. CCc1cc(CN(CC2CC2)C(CC(=O)O)c2ccc(Cl)c(F)c2)ccc1OCCN1C(=O)CCC1=O (stereo not drawn)

[A]
1: 76; 2: 109; 3: 407; 4: 50
